Tested on: EpCAM
ASSAY EXPLANATION: Spot phage ELISA, EpCAM
Type: binding, human
EXPERIMENTAL SETUP: spot phage ELISA signal-to-noise on EpCAM
Where no end group is shown, it is not given here.
Reported S/N values follow for various sequences
The answer should be written as a number, with no unit following it.

// worked examples, S/N included
>  <SEQUENCE ENTRY>
GPTQSHYGQCGGKGYRGAIRCSGTTCQYIREFTSQCLPGAS (disulfide (positions not given here)) [EpCAM CBD 43]

>  <S/N>
11.4

$$$$
>  <SEQUENCE ENTRY>
GCPRILMRCKQDSDCQAFCG (disulfide (positions not given here)) [EpCAM EET I-II 23]

>  <S/N>
18.7

$$$$

# get_value(readout='S/N', item= GCPRILMRCKQDSGLSSWLCLCCSASVC (disulfide (positions not given here)) [EpCAM EET I-II 16] ) 20.6

# get_value(readout='S/N', item= GPTQSHYGQCGGFGYHGYIVCSGTTCQSRQYDNSQCLPGAS (disulfide (positions not given here)) [EpCAM CBD 21] ) 17.2

# get_value(readout='S/N', item= GPTQSHYGQCGGWGYQGWAICSGTTCQAQLSHKSQCLPGAS (disulfide (positions not given here)) [EpCAM CBD 83] ) 6.8

# get_value(readout='S/N', item= GCPRILMRCKQDSDCQPFCG (disulfide (positions not given here)) [EpCAM EET I-II 6] ) 22.2

# get_value(readout='S/N', item= GPTQSHYGQCGGIGYMGAIQCSGTTCQPIFLRNSQCLPGAS (disulfide (positions not given here)) [EpCAM CBD 6] ) 22.6

----------
System: CD16A
ASSAY EXPLANATION: Spot phage ELISA, CD16A
Type: binding, human
EXPERIMENTAL SETUP: spot phage ELISA signal-to-noise on CD16A
Where no end group is shown, it is not given here.
Reported S/N values follow for various sequences
The answer should be written as a number, with no unit following it.

>  <SEQUENCE ENTRY>
GCVETYVDCKQDSDCLAGCVCEPVQYCG (disulfide (positions not given here)) [CD16A EETI-II 12]

>  <TARGET SYSTEM>
CD16A

>  <ENDPOINT RESULT>
18.5

$$$$
>  <SEQUENCE ENTRY>
GCPWWWVVSCKQDSDCLAGCVCYLQENCG (disulfide (positions not given here)) [CD16A EETI-II 43]

>  <TARGET SYSTEM>
CD16A

>  <ENDPOINT RESULT>
16.5

$$$$
>  <SEQUENCE ENTRY>
GCDDPWGGEMCKQDSDCLAGCVCGPNGFCG (disulfide (positions not given here)) [CD16A EETI-II 16]

>  <TARGET SYSTEM>
CD16A

>  <ENDPOINT RESULT>
23.6

$$$$

What is its S/N for CD16A? Entry: GCQWDPWGVQMNCKQDSDCLAGCVCGPNGFC (disulfide (positions not given here)) [CD16A EETI-II 34] 19.6

----------
System: HtrA1
Assay type: binding, human
EXPERIMENTAL SETUP: ratio of signal for target protein over BSA background
Where no end group is shown, it is not given here.
Values of S/N greater than or equal to 8 map to label 1; values below map to label 0.

Please review the following examples before continuing.
>  <SEQUENCE ENTRY>
WIPCISAALGCSCKNKVCYYAGKIYSWQAQLLCGESCV (also: bicyclic or more (positions not given here)) [HtrA1 CirculinA 93]

>  <CLASS LABEL>
label 1

$$$$
>  <SEQUENCE ENTRY>
WIPCISAALGCSCKNKVCYVATMVVHWVCGESCV (also: bicyclic or more (positions not given here)) [HtrA1 CirculinA 34]

>  <CLASS LABEL>
label 1

$$$$
>  <SEQUENCE ENTRY>
AFDCLGQCGRCDFHKLQCVRYLIKYSIMWMTYCNSSCTR (also: bicyclic or more (positions not given here)) [HtrA1 AVR9 26]

>  <CLASS LABEL>
label 1

$$$$
>  <SEQUENCE ENTRY>
AFDCLGQCGRCDFHKLQCVLWTVANMQHYYCNSSCTR (also: bicyclic or more (positions not given here)) [HtrA1 AVR9 85]

>  <CLASS LABEL>
label 0

$$$$
>  <SEQUENCE ENTRY>
AFDCLGQCGRCDFHKLQCVWSIYVKFWYCNSSCTR (also: bicyclic or more (positions not given here)) [HtrA1 AVR9 4]

>  <CLASS LABEL>
label 1

$$$$
>  <SEQUENCE ENTRY>
AFDCLGQCGRCDFHKLQCVVFQIIYQAVNYCNSSCTR (also: bicyclic or more (positions not given here)) [HtrA1 AVR9 88]

>  <CLASS LABEL>
label 1

$$$$
>  <SEQUENCE ENTRY>
GCHSVHSMCKQDSDCLAGCVCYWFYGCG (also: bicyclic or more (positions not given here)) [HtrA1 EET I-II 1]

>  <CLASS LABEL>
label 1

$$$$
>  <SEQUENCE ENTRY>
GPTQSHYGQCGGRGYFGTMYCASGTTCQFKWRRDSQCLPGAS (also: bicyclic or more (positions not given here)) [HtrA1 CBD 74]

>  <CLASS LABEL>
label 1

$$$$

Decide: S/N of WIPCISAALGCSCKNKVCYIVILTTPCGESCV (also: bicyclic or more (positions not given here)) [HtrA1 CirculinA 73] >= 8? label 1

Decide: S/N of AFDCLGQCGRCDFHKLQCVLWHQWVKWYVYCNSSCTR (also: bicyclic or more (positions not given here)) [HtrA1 AVR9 68] >= 8? label 1

Decide: S/N of GCWWMNVRTRQGCKQDSDCLAGCVCGPNGFCG (also: bicyclic or more (positions not given here)) [HtrA1 EET I-II 25] >= 8? label 0

Decide: S/N of AFDCLGQCGRCDFHKLQCVMMRLLARWVFKFYCNSSCTR (also: bicyclic or more (positions not given here)) [HtrA1 AVR9 52] >= 8? label 1

----------
Reported S/N values follow for various sequences
Test system: EpCAM
ASSAY EXPLANATION: Spot phage ELISA, EpCAM
Format: binding, human
EXPERIMENTAL SETUP: spot phage ELISA signal-to-noise on EpCAM
Where no end group is shown, it is not given here.
The answer should be written as a number, with no unit following it.

>  <SEQUENCE ENTRY>
GCPRILMRCKQDSDCLAGCVCWPGWPCG (disulfide (positions not given here)) [EpCAM EET I-II 19]

>  <S/N>
19.6

$$$$
>  <SEQUENCE ENTRY>
GPTQSHYGQCGGTGYVGMFKCSGTTCQYVYSSASQCLPGAS (disulfide (positions not given here)) [EpCAM CBD 67]

>  <S/N>
8.5

$$$$
>  <SEQUENCE ENTRY>
GPTQSHYGQCGGLGYAGAIVCSGTTCQYTIRNPSQCLPGAS (disulfide (positions not given here)) [EpCAM CBD 65]

>  <S/N>
8.6

$$$$
>  <SEQUENCE ENTRY>
GPTQSIYGVCGGIGYVGGRYCSGTTCQIPEKYKSQCLPGAS (disulfide (positions not given here)) [EpCAM CBD 45]

>  <S/N>
11.1

$$$$
>  <SEQUENCE ENTRY>
GPTQSHYGQCGGSGYKGVIVCSGTTCQYKIMTMSQCLPGAS (disulfide (positions not given here)) [EpCAM CBD 44]

>  <S/N>
11.1

$$$$

# get_value(readout='S/N', item= GPTQSHYGQCGGLGYQGGMMCSGTTCQYVPIWRSQCLPGAS (disulfide (positions not given here)) [EpCAM CBD 17] ) 18.6

----------
Tested on: CD16A
ASSAY EXPLANATION: Spot phage ELISA, CD16A
Assay type: binding, human
EXPERIMENTAL SETUP: spot phage ELISA signal-to-noise on CD16A
Where no end group is shown, it is not given here.
Values of S/N greater than or equal to 20 map to TRUE; values below map to FALSE.

Please review the following examples before continuing.
>  <SEQUENCE ENTRY>
GCGQAAVPCKQDSDCLAGCVCDPWGWCD (disulfide (positions not given here)) [CD16A EETI-II 29]

>  <CLASS LABEL>
TRUE

$$$$
>  <SEQUENCE ENTRY>
GCQWAQLSWDHCKQDSDCLAGCVCWQSPYCG (disulfide (positions not given here)) [CD16A EETI-II 35]

>  <CLASS LABEL>
FALSE

$$$$
>  <SEQUENCE ENTRY>
GPTQSEGGSCGGIGYSGPTVCASGTTCQVLNPYMSACLPGAS (disulfide (positions not given here)) [CD16A CBD 7]

>  <CLASS LABEL>
FALSE

$$$$

// next entry
Decide: S/N of GPTQSPEGSCGGIGYSGPTVCASGTTCQVLNPYLSLCLPGAS (disulfide (positions not given here)) [CD16A CBD 8] >= 20? FALSE

Every entry's value here was drawn from paper PMC10977697.
